Organism: Rattus norvegicus
protocol-summary: Open TG-GATES - Regimen: Daily Repeat
Assay type: toxicity, organism-based, Sprague-Dawley
Design: regimen Daily Repeat, gender Male, age 6 weeks
experimental-parameters: in vivo, po, 0 mg/kg, […], tissue Blood, route gavage, dose level Control, time 14 day
What Bas was measured for each of the following?
The figure you give is taken to be in %; do not add the unit.

q: Annotate the molecule O=C(O)c1ccccc1Nc1ccccc1 with its measured Bas.
a: 0.4

q: Annotate the molecule CN(CCOc1ccc(CC2SC(=O)NC2=O)cc1)c1ccccn1.O=C(O)/C=C\C(=O)O (stereo not drawn) [ROSIGLITAZONE MALEATE] with its measured Bas.
a: 0

q: Annotate the molecule CC(=O)[C@@]1(O)CC[C@H]2[C@@H]3C=C(Cl)C4=CC(=O)CC[C@]4(C)[C@H]3CC[C@@]21C with its measured Bas.
a: 0

q: Annotate the molecule COc1ccc([C@@H]2Sc3ccccc3N(CCN(C)C)C(=O)[C@@H]2OC(C)=O)cc1 with its measured Bas.
a: 0.4

q: Annotate the molecule NS(=O)(=O)c1cc(C(=O)O)c(NCc2ccco2)cc1Cl [FUROSEMIDE] with its measured Bas.
a: 0.4

q: Annotate the molecule CCN(CC)C(=S)SSC(=S)N(CC)CC with its measured Bas.
a: 0

q: Annotate the molecule CN(C/C=C/C#CC(C)(C)C)Cc1cccc2ccccc12 with its measured Bas.
a: 1

q: Annotate the molecule Nc1ccc(Cc2ccc(N)cc2)cc1 with its measured Bas.
a: 0.2

q: Annotate the molecule O=c1ccc2ccccc2o1 with its measured Bas.
a: 0.2

q: Annotate the molecule CC(S)C(=O)NCC(=O)O (stereo not drawn) with its measured Bas.
a: 0

q: Annotate the molecule CCCCNC(=O)NS(=O)(=O)c1ccc(C)cc1 [TOLBUTAMIDE] with its measured Bas.
a: 0.2

q: Annotate the molecule CCCCC1C(=O)N(c2ccccc2)N(c2ccccc2)C1=O with its measured Bas.
a: 0

q: Annotate the molecule CCO with its measured Bas.
a: 0

* * *

Organism: Rattus norvegicus
protocol-summary: Open TG-GATES - Regimen: Daily Repeat
Assay type: toxicity, organism-based, Sprague-Dawley
Design: regimen Daily Repeat, gender Male, age 6 weeks
experimental-parameters: in vivo, po, 0 mg/kg, […], tissue Blood, route gavage, dose level Control, time 28 day
result-type: Eos (%)
The figure you give is taken to be in %; do not add the unit.

q: Annotate the compound O=C(O)c1ccccc1Nc1ccccc1 with its measured Eos.
a: 1

q: Annotate the compound O=c1ccc2ccccc2o1 with its measured Eos.
a: 1.2

q: Annotate the compound CC(S)C(=O)NCC(=O)O (stereo not drawn) with its measured Eos.
a: 1

* * *

Organism: Rattus norvegicus
protocol-summary: Open TG-GATES - Regimen: Single
Format: toxicity, organism-based, Sprague-Dawley
Set-up: regimen Single, gender Male, age 6 weeks
experimental-parameters: in vivo, po, 0 mg/kg, 9 h, tissue Kidney, route gavage, dose level Control
What KIDNEY_L was measured for each of the following?
Answer format: value, then unit.

q: Annotate the molecule Nc1ccc(Cc2ccc(N)cc2)cc1 with its measured KIDNEY_L.
a: 0.9 g

q: Annotate the molecule O=C(O)c1ccccc1Nc1ccccc1 [FENAMIC ACID] with its measured KIDNEY_L.
a: 0.9 g

q: Annotate the molecule COc1cc2ncnc(Nc3ccc(F)c(Cl)c3)c2cc1OCCCN1CCOCC1 [GEFITINIB] with its measured KIDNEY_L.
a: 1 g

q: Annotate the molecule CC(S)C(=O)NCC(=O)O (configuration not stated) [TIOPRONIN] with its measured KIDNEY_L.
a: 0.9 g

q: Annotate the molecule CCCCNC(=O)NS(=O)(=O)c1ccc(C)cc1 [TOLBUTAMIDE] with its measured KIDNEY_L.
a: 0.9 g

q: Annotate the molecule CN(C)CCCN1c2ccccc2Sc2ccc(Cl)cc21 [CHLORPROMAZINE] with its measured KIDNEY_L.
a: 1 g

q: Annotate the molecule COc1ccc([C@@H]2Sc3ccccc3N(CCN(C)C)C(=O)[C@@H]2OC(C)=O)cc1 [DILTIAZEM] with its measured KIDNEY_L.
a: 0.8 g

q: Annotate the molecule CCO [ALCOHOL] with its measured KIDNEY_L.
a: 0.9 g

q: Annotate the molecule CC(=O)[C@@]1(O)CC[C@H]2[C@@H]3C=C(Cl)C4=CC(=O)CC[C@]4(C)[C@H]3CC[C@@]21C [CHLORMADINONE] with its measured KIDNEY_L.
a: 1 g

q: Annotate the molecule C=C[C@H]1C[N@@]2CC[C@H]1C[C@@H]2[C@@H](O)c1ccnc2ccc(OC)cc12 [QUINIDINE] with its measured KIDNEY_L.
a: 1 g

q: Annotate the molecule O=c1ccc2ccccc2o1 [COUMARIN] with its measured KIDNEY_L.
a: 0.9 g

q: Annotate the molecule CN(C/C=C/C#CC(C)(C)C)Cc1cccc2ccccc12 [TERBINAFINE] with its measured KIDNEY_L.
a: 1 g
